Origin of values: ChEMBL document CHEMBL1961873

molecular target: Tyrosine-protein kinase FRK (Homo sapiens); details: at 1 µM;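 note: reported percent inhibition is a mean value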
quantity measured: inhibition (%)

compound | quantity measured | value reported
Fc1ccc(-c2nn3ncccc3c2-c2ccnc(Nc3ccc4c(c3)OCCO4)n2)cc1 | inhibition | 25.4
CN1CCC(n2cnc(-c3ccc(F)cc3)c2-c2ccnc(Nc3ccccc3)n2)CC1 | inhibition | 1.83
COc1cc(/C=N/Nc2ncnc3[nH]ncc23)ccc1O | inhibition | 3.55
Cc1ccc(O)cc1Nc1ccnc2cc(-c3ccccn3)ccc12 | inhibition | 68.2
O=S(=O)(CCNCc1ccc(-c2ccc3ncnc(Nc4ccc(OCc5cccc(F)c5)c(Cl)c4)c3c2)o1)c1ccccc1 | inhibition | 3.5
c1ccc(-c2nc3n(c2-c2ccc4c(c2)OCO4)CCC3)nc1 | inhibition | 0.2
COc1ccc(-c2nn3ncccc3c2-c2ccnc(Nc3ccc4c(c3)OCCO4)n2)cc1 | inhibition | 3.44
N#Cc1c(NC(=O)CN2CCOCC2)sc2c1CCCC2 | inhibition | 1.5
CCCN1CCC(c2ccc(Nc3nc(Nc4cc(F)ccc4C(N)=O)c4cc[nH]c4n3)c(OC)c2)CC1 | inhibition | 19.3
CCc1nn2ncccc2c1-c1ccnc(NC2CC2)n1 | inhibition | 1.77
COc1ccc(-c2cc3c(N)ncnc3o2)cc1 | inhibition | 0.16
CC1=C(C(=O)Nc2cc(Cl)c3[nH]ncc3c2)C(c2ccc(C(F)(F)F)cc2)CC(=O)N1 (configuration not stated) | inhibition | 7.85
CCn1c(-c2nonc2N)nc2c(C#CC(C)(C)O)ncc(OC3CCNCC3)c21 | inhibition | 2.25
COc1ccc(-c2cc(-c3c[nH]nc3-c3ccccn3)ccn2)cc1 | inhibition | 2.92
Nc1ncc(-c2cccc(S(N)(=O)=O)c2)c2scc(-c3ccc(F)c(Cl)c3)c12 | inhibition | 14.2
CS(=O)(=O)CCNCc1coc(-c2ccc3ncnc(Nc4ccc(OCc5ccccc5)cc4)c3c2)c1 | inhibition | 0.27
COc1cc2ncn(-c3cc(OCc4ccccc4C(F)(F)F)c(C(=O)N(C)C)s3)c2cc1OC | inhibition | -0.25
